- EXPERIMENTAL DETAILS: qHTS Assay for Lipid Storage Modulators in Drosophila S3 Cells;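 further: cells counted by Cell Tracker Red CMTPX staining in the red channel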
- CONDITION CONTEXT: BODIPY lipid droplet fluorescence, 18-24 h, cells fed with added oleic acid; measured here: cell count max response
Screen size: about 320,000 compounds; about 2,100 (0.66%) were called active. Another 53% or so got no clear call; they are omitted. The sample as a whole holds a higher share of actives than the screen did.
Reported cell number change values for the following compounds.
OBSERVATION TYPE: cell number change (%)

> print(dat)
                                    compound    observation.type  observed.measurement
 1  CCc1ccc(-c2cc(C)no2)cc1S(=O)(=O)N1CCCN(Cc2ccc(F)cc2)C1  cell number change                  2.69
 2  O=C(CC1C(=O)NCCN1Cc1cccc(C(F)(F)F)c1)NC1CCCCCC1 (stereo unspecified)  cell number change                  13.5
 3  COc1cc(/C=C2\SC(N3CCc4ccccc4C3)=NC2=O)cc(OC)c1OC  cell number change                  4.12
 4  CC1CCN(S(=O)(=O)c2ccc(NC(=O)c3ccco3)cc2)CC1  cell number change                 -3.17
 5      C[C@H](NC(N)=O)C(=O)Nc1ccc2c(c1)OCO2  cell number change                 -6.18
 6  O=C(O)C1CC=CCC1C(=O)Nc1cc(Cl)ccc1Cl (stereo unspecified)  cell number change                 -10.1
 7        O=C(Nc1ccc(N2CCCC2)c(Cl)c1)c1ccco1  cell number change                 -15.9
 8  CCOc1cc(N2CCOCC2)c(OCC)cc1NC(=O)CSc1n[nH]c(N)n1  cell number change                  21.7
 9   CCSCCc1nnc(NC(=O)Nc2cccc(C(F)(F)F)c2)s1  cell number change                 -21.6
10  O=C(NC1CCCCC1)C1CCCN(S(=O)(=O)c2ccc(F)cc2)C1 (stereo unspecified)  cell number change                  2.52
11  O=C(NC1CCN(S(=O)(=O)c2ccc(F)cc2)CC1)C1CCCCC1  cell number change                 -18.1
12             Cc1ccnc(NC(=O)/C=C/c2cccs2)c1  cell number change                 -3.66
13              Cc1nc(Cl)sc1C(=O)Nc1ccccc1Cl  cell number change                 -11.3
14  O=C(NNC(=O)[C@H]1CC=CC[C@H]1C(=O)O)c1ccc(Cl)cc1Cl  cell number change                  10.3
15  CCc1cccc(CC)c1NC(=O)COC(=O)CC1c2ccccc2CCN1S(=O)(=O)c1ccccc1 (stereo unspecified)  cell number change                0.0752
16         COc1ccc(C(=O)NCCOc2cccc(OC)c2)cc1  cell number change                  26.7
17  Cc1ccc(S(=O)(=O)N2CC(=O)Nc3ccccc32)c(C)c1NS(C)(=O)=O  cell number change                 -8.89
18            Cc1nc(Cl)sc1C(=O)Nc1cccc(Cl)c1  cell number change                  2.35
19  COc1ccc(CCNC(=O)C2CC=CCC2C(=O)O)cc1 (stereo unspecified)  cell number change                  23.9
20  O=C(NC1CCCCCC1)C1CCN(S(=O)(=O)c2ccc(F)cc2)CC1  cell number change                 -1.11
21                    Fc1ccccc1OCCCCN1CCCCC1  cell number change                  6.04
22  O=C(Nc1cccc(C(F)(F)F)c1)c1sc(Cl)nc1C(F)(F)F  cell number change                 -10.2
23        CC(=O)c1cccc(NC(=O)c2sc(Cl)nc2C)c1  cell number change                  12.6
24          CC(=O)CSc1cc(-c2ccccc2)nc2ncnn12  cell number change                 -21.4
25          Cc1ncsc1C(=O)Nc1cccc(C(F)(F)F)c1  cell number change                  22.3
26  CC(OC(=O)Cc1n[nH]c(=O)c2ccccc12)C(=O)Nc1ccc(F)cc1 (stereo unspecified)  cell number change                 -13.8
27  CC(=O)C1=NN(c2ccc(Cl)cc2)C(c2ccc3c(c2)OCO3)N(C(C)=O)N1C (stereo unspecified)  cell number change                  4.72
28  Cc1ccc(S(=O)(=O)N2CCC(C(=O)NCc3ccncc3)CC2)cc1  cell number change                  12.7
29  O=C(O)C1CC=CCC1C(=O)NCCc1ccccc1 (stereo unspecified)  cell number change                  3.33
30  CCOc1ccc(S(=O)(=O)N2CCC(C(=O)NCc3ccncc3)CC2)cc1Cl  cell number change                 -18.4
31  O=C(Nc1ccccc1C(=O)OC1CCOC1=O)c1ccco1 (stereo unspecified)  cell number change                  2.86
32          O=C(c1ccco1)N1CCN(C(=O)C2CC2)CC1  cell number change                  3.46
33  CCOC(=O)C1=C(COC(=O)/C=C/c2cc(OC)c(OC)c(OC)c2)NC(=O)NC1C (stereo unspecified)  cell number change                  4.86
34        CCOc1ccc(Br)cc1S(=O)(=O)NCc1ccncc1  cell number change                  3.33
35  CSc1ccc(S(=O)(=O)N2CCC(C(=O)NCc3ccncc3)CC2)cc1  cell number change                  19.2
36  CCOC(=O)c1cc(-c2ccc(OC)cc2)n(CCC(=O)NC2CCN(Cc3ccccc3)CC2)c1C  cell number change                    11
37  COc1ccc(CN(CC(=O)NCc2ccccc2)C(=O)c2csnn2)cc1  cell number change                  1.68
38                  O=C(NCCNC1CCCCC1)c1ccco1  cell number change                  17.5
39  O=C(O)C1CCCCC1C(=O)NCCCc1ccccc1 (stereo unspecified)  cell number change                 -1.96
40                CNC(=O)Nc1cccc(C(F)(F)F)c1  cell number change                  3.39
41  O=C(CC1C(=O)NCCN1Cc1ccccc1)NC1CCCCCC1 (stereo unspecified)  cell number change                  13.2
42  Cn1cc(/C=C/C(=O)N2CCCC(C(=O)c3cccc4ccccc34)C2)cn1 (stereo unspecified)  cell number change                  8.66
43  CCOc1ccc(S(=O)(=O)N2CCCC(C(=O)NCc3ccncc3)C2)cc1C (stereo unspecified)  cell number change                  9.24
44       S=c1[nH]nc(-c2cccnc2)n1/N=C/c1ccco1  cell number change                  1.79
45  CCc1ccc(-c2cc(C)no2)cc1S(=O)(=O)Nc1ccccn1  cell number change                 -19.5
46  CC(C)(C)c1ccc(C(=O)NC2CCN(Cc3ccccc3)CC2)cc1  cell number change                  5.06
